# tested-system: Hexose transporter 1 (Plasmodium falciparum) (UniProt O97467)
# protocol-text: ST_JUDE_LEISH: Cytotoxicity at 2uM final concentration against transgenic Leishmania Mexicana promastigotes LmPfHT that are glucose transport deficient and complemented with the Plasmodium falciparum hexose transporter. Activity is measured by DNA content using SYBR green in vitro
# Format: functional
# if value of inhibition reaches 3%, tag y; if it stays below, tag n

> print(dat)
                               smiles.input  label
1  CCN(CC)CCN(Cc1ccc(-c2ccc(C(F)(F)F)cc2)cc1)C(=O)Cn1cc(Cc2cnn(C)c2)c(=O)nc1/C=C/c1cccc(F)c1F      y
2  COc1ccc(CNC2CCN(C)CC2)cc1-c1ccc(S(=O)(=O)NCc2cccnc2)s1      n
3       O=C(Nc1ccc(N2CCCCC2)c(Cl)c1)c1ccco1      n
4  COc1ccc(CNCCc2cccs2)cc1-c1ccc(S(=O)(=O)NCCN2CCCC2)cc1      y
5    CN(C)Cc1ccc(O)c(-c2ccc(C(C)(C)C)cc2)n1      n
6  CN1CCN(CCCNCc2cccc(Nc3nccc(Nc4ccc(Oc5ccccc5)cc4)n3)c2)CC1      n
7  COc1cc2nc(N3CCC(CNC(=O)/C=C/c4cccc(C)c4)CC3)nc(N)c2cc1OC      n
8  O=C(Nc1cccc(C(F)(F)F)c1)Nc1nc2ccc([N+](=O)[O-])cc2s1      y
9  CCc1cn2c3c(cc(C(=O)N[C@@H](Cc4cccc(F)c4)[C@H](O)CNC4CCOCC4)cc13)N(C)S(=O)(=O)CC2      n

----------
Quick reference: inhibition of the listed items.
# tested-system: Solute carrier family 2, facilitated glucose transporter member 1 (Homo sapiens) (UniProt P11166)
# Sequence (P11166 whole entry): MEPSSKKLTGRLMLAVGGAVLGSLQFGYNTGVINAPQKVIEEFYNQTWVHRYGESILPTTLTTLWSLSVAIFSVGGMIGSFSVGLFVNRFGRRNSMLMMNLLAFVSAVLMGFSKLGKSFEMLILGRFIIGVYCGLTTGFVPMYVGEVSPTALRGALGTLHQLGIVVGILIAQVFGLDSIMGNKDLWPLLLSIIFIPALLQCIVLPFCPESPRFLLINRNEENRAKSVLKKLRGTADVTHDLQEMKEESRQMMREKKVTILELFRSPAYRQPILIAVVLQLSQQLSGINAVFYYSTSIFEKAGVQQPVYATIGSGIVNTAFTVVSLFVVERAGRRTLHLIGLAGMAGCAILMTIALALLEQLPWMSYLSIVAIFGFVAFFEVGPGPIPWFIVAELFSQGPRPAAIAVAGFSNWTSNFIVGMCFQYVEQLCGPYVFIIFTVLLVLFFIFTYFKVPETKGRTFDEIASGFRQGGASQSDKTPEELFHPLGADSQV
# protocol-text: ST_JUDE_LEISH: Cytotoxicity at 2uM final concentration against transgenic Leishmania Mexicana promastigotes LmGLUT1 that are glucose transport deficient and complemented with the human glucose transporter GLUT1. Activity is measured by DNA content using SYBR green in vitro
# Format: functional
outcome-measure: inhibition (%)

> print(dat)
                                    compound  outcome.measure  numeric.result
 1  CC(=O)Nc1cccc(C(=O)Nc2ccc(-c3cccc(-c4nc5cc(C(F)(F)F)ccc5[nH]4)c3)cc2)c1       inhibition            2.13
 2  CC(C)(C)OC(=O)NCCc1cccc(-c2c[nH]c3ncc(-c4cccc(NS(C)(=O)=O)c4)cc23)c1       inhibition           -0.22
 3      C1=CN(Cc2ccccc2)C=CC1=C1C=Nc2ccccc21       inhibition            12.1
 4  Cc1nc(C)c(CC(=O)Nc2cccc(-c3cccc(-c4nc5cccc(C)c5[nH]4)c3)c2)s1       inhibition           -1.73
 5  Cc1cccc(Nc2nc(C)cc(N3CCCN(CC4CCCCC4)CC3)n2)c1       inhibition           -2.84
 6  O=C(Nc1cccc(CN2CCCN(Cc3cccc(O)c3)CC2)c1)c1ccc(-c2ccccc2)cc1       inhibition           -3.92
 7  Cc1cccc(NC(=O)Nc2ccc(I)c(OCCN(C)C)c2)c1C       inhibition            15.2
 8  CC(Cc1ccc(C(=O)Nc2ccc(CC(C)NCCc3cccc(Cl)c3)cc2)cc1)NCCc1ccc(C(F)(F)F)cc1 (centres undefined)       inhibition            56.4
 9  COc1ccc2nccc(N3CCC(CCNCc4ccc5c(n4)NC(=O)CO5)CC3)c2n1       inhibition            0.66
10  COc1ccc2ncc(F)c(CCN3CCC[C@H](CNCc4ccc5c(n4)NC(=O)CS5)C3)c2n1       inhibition            5.76
11  OC(c1ccc(Cl)cc1)(c1ccc(Cl)cc1)C(c1ccc(Cl)cc1)n1ccnc1 (centres undefined)       inhibition            8.37
12         CCCc1ccc(N2C(N)=NC(N)=NC2(C)C)cc1       inhibition             1.9
13  O=[N+]([O-])c1ccc(Nc2nc(NCc3ccccc3)nc(N/N=C/c3ccccc3[N+](=O)[O-])n2)cc1       inhibition            2.21
14  CN1CCC(C(=O)N(Cc2ccc(-c3ccc(CNCCc4ccccc4)cn3)cc2)Cc2cccc(F)c2)CC1       inhibition            3.52
15  O=C(Nc1ccccc1)N(Cc1ccccc1-c1cccc(CNCc2ccc3c(c2)OCO3)c1)C1CCN(Cc2ccccc2)CC1       inhibition           -2.93
16  COc1cc2nc(NCCc3ccccc3)nc(NCc3cc(C)no3)c2cc1OC       inhibition            4.85
17  NC1CCN(Cc2ccc(-c3ccc(-c4nc5ccccc5[nH]4)s3)cc2)C1 (centres undefined)       inhibition            3.97
18  O=c1cc(NCCCNCc2ccc(Cl)c(Cl)c2)[nH]c2ccc(Cl)cc12       inhibition            0.59
19  O=C(/C=C/c1ccc(Cl)c(Cl)c1)NCCCCCN1CCC(NC(=O)Nc2ccc([N+](=O)[O-])cc2)CC1       inhibition           -0.34

FYI, the data here is from ChEMBL document CHEMBL3433997.
